B1: Far upstream element-binding protein 1, residues 184 to 257; numbered along this chain, Q96AE4 (parent)
chain: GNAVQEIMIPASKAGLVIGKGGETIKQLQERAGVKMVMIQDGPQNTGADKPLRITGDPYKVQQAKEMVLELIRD

Variants of: B1
Method Notes: abundance fitness (aPCA) (normalised: wild type 0, dead -1); higher = more abundant; growth selection in yeast, the domain comes from the species named
Test Conditions: Homo sapiens
Use abundance fitness to assign classes; range list: range A (below -0.1), range B (-0.1 to below -0.06), range C (-0.06 or more)

// known answers, use as guide
{"Changes": "K65A", "Assigned Label": "range B"}
{"Changes": "V68I", "Assigned Label": "range C"}
{"Changes": "D74P", "Assigned Label": "range C"}
{"Changes": "M36V", "Assigned Label": "range A"}
{"Changes": "A14T", "Assigned Label": "range C"}
{"Changes": "T46A", "Assigned Label": "range B"}
{"Changes": "M36C", "Assigned Label": "range A"}
{"Changes": "G21R", "Assigned Label": "range C"}
{"Changes": "L69Q", "Assigned Label": "range C"}
{"Changes": "I72A", "Assigned Label": "range A"}

Form: Item = `I72Q` ; Class = ? range A

Form: Item = `R73I` ; Class = ? range A
